Origin of measurements: patent US10059741B2

Experiment: in vitro
Conditions: dog, CC50, run with Influenza A H1N1 California/07/2009; Neutral Red
Bridge positions count the residues as written; N and C are the ends. Square brackets hold non-standard residues; d marks the D form. Peptide text beside a SMILES is read from it. S5 = C=CCCC[C@](C)(N)C(=O)O; Nle = CCCC[C@H](N)C(=O)O; Aib = CC(C)(N)C(=O)O
assay-endpoint: CC50

// query CC50 value for entry CCCC[C@H](NC(C)=O)C(=O)N[C@@H](CC(=O)O)C(=O)N[C@H](C(=O)N[C@@H](CC(N)=O)C(=O)N[C@@]1(C)CCCC=CCCC[C@@](C)(C(=O)N[C@@H](CC(C)C)C(=O)N[C@@H](C)C(=O)N[C@H](C(=O)N[C@@H](CCC(N)=O)C(=O)N[C@@H](C)C(=O)NC(C)(C)C(=O)N[C@@H](C)C(=O)N[C@@H](C)C(N)=O)C(C)C)NC(=O)[C@H](CC(C)C)NC(=O)[C@H](CC(C)C)NC(=O)[C@H]([C@@H](C)O)NC1=O)C(C)C [SP-23] (Ac-[Nle]DVN[S5]TLL[S5]LAVQA[Aib]AA-NH2; staple 5-9)
> 100 µM

====

Experiment: in vitro
Settings: dog, CC50, MDCK cells; run with Influenza A H3N2 Perth/16/2009; VYR/Neutral Red
Bridge positions count the residues as written; N and C are the ends. Square brackets hold non-standard residues; d marks the D form. Peptide text beside a SMILES is read from it. R8 = C=CCCCCCC[C@@](C)(N)C(=O)O; S5 = C=CCCC[C@](C)(N)C(=O)O; Nle = CCCC[C@H](N)C(=O)O; Aib = CC(C)(N)C(=O)O
assay-endpoint: CC50

compound: CCCC[C@H](NC(C)=O)C(=O)N[C@@H](CC(=O)O)C(=O)N[C@H](C(=O)N[C@@H](CC(N)=O)C(=O)N[C@]1(C)CCCCCCC=CCCC[C@@](C)(C(=O)N[C@@H](C)C(=O)N[C@@H](C)C(=O)N[C@@H](CCC(N)=O)C(N)=O)NC(=O)[C@H](C)NC(=O)[C@H](CC(C)C)NC(=O)[C@H](Cc2ccccc2)NC(=O)[C@H](CC(C)C)NC(=O)[C@H](CC(C)C)NC(=O)[C@H]([C@@H](C)O)NC1=O)C(C)C [SP-18] (Ac-[Nle]DVN[R8]TLLFLA[S5]AAQ-NH2; staple 5-12)
CC50: > 100 µM

Shift focus to the following entry.
// query CC50 value for entry CCCC[C@H](NC(C)=O)C(=O)N[C@@H](CC(=O)O)C(=O)N[C@H](C(=O)N[C@@H](CC(N)=O)C(=O)N[C@@]1(C)CCCC=CCCC[C@@](C)(C(=O)N[C@@H](CC(C)C)C(=O)N[C@@H](C)C(=O)N[C@H](C(=O)NC(C)(C)C(=O)N[C@@H](C)C(=O)N[C@@H](CCC(N)=O)C(N)=O)C(C)C)NC(=O)[C@H](CC(C)C)NC(=O)[C@H](CC(C)C)NC(=O)[C@H]([C@@H](C)O)NC1=O)C(C)C [SP-6] (Ac-[Nle]DVN[S5]TLL[S5]LAV[Aib]AQ-NH2; staple 5-9)
> 100 µM

====

Assay: in vitro
Details: dog, CC50
Bridge positions count the residues as written; N and C are the ends. Square brackets hold non-standard residues; d marks the D form. Peptide text beside a SMILES is read from it. R8 = C=CCCCCCC[C@@](C)(N)C(=O)O; S5 = C=CCCC[C@](C)(N)C(=O)O; Nle = CCCC[C@H](N)C(=O)O; Aib = CC(C)(N)C(=O)O
assay-endpoint: CC50

For orientation, consider the following solved cases.
compound: CCCC[C@H](NC(C)=O)C(=O)N[C@@H](CC(=O)O)C(=O)N[C@H](C(=O)N[C@@H](CC(N)=O)C(=O)N[C@@]1(C)CCCC=CCCC[C@@](C)(C(=O)N[C@@H](CC(C)C)C(=O)N[C@@H](C)C(=O)N[C@H](C(=O)N[C@@H](CCC(N)=O)C(=O)N[C@@H](C)C(=O)N[C@@H](C)C(=O)NC(C)(C)C(=O)N[C@@H](C)C(N)=O)C(C)C)NC(=O)[C@H](CC(C)C)NC(=O)[C@H](CC(C)C)NC(=O)[C@H]([C@@H](C)O)NC1=O)C(C)C [SP-22] (Ac-[Nle]DVN[S5]TLL[S5]LAVQAA[Aib]A-NH2; staple 5-9)
CC50: > 50 µM

compound: CCCC[C@H](NC(C)=O)C(=O)N[C@@H](CC(=O)O)C(=O)N[C@H](C(=O)N[C@@H](CC(N)=O)C(=O)N[C@]1(C)CCCCCCC=CCCC[C@@](C)(C(=O)N[C@@H](CCC(N)=O)C(=O)N[C@@H](C)C(=O)N[C@@H](C)C(=O)N[C@@H](C)C(=O)N[C@@H](C)C(N)=O)NC(=O)[C@H](C)NC(=O)[C@H](CC(C)C)NC(=O)[C@H](Cc2ccccc2)NC(=O)[C@H](CC(C)C)NC(=O)[C@H](CC(C)C)NC(=O)[C@H]([C@@H](C)O)NC1=O)C(C)C [SP-27] (Ac-[Nle]DVN[R8]TLLFLA[S5]QAAAA-NH2; staple 5-12)
CC50: > 50 µM

compound: CCCC[C@H](NC(C)=O)C(=O)N[C@@H](CC(=O)O)C(=O)N[C@H](C(=O)N[C@@H](CC(N)=O)C(=O)N[C@@]1(C)CCCC=CCCC[C@@](C)(C(=O)N[C@@H](CC(C)C)C(=O)N[C@@H](CCCCN)C(=O)N[C@H](C(=O)NC(C)(C)C(=O)N[C@@H](C)C(=O)N[C@@H](CCC(N)=O)C(N)=O)C(C)C)NC(=O)[C@H](CC(C)C)NC(=O)[C@H](CC(C)C)NC(=O)[C@H]([C@@H](C)O)NC1=O)C(C)C [AP1, Ac-NleDVN$TLL$LKVAibAQ-NH2] (Ac-[Nle]DVN[S5]TLL[S5]LKV[Aib]AQ-NH2; staple 5-9)
CC50: > 100 µM

compound: CCCC[C@H](NC(C)=O)C(=O)N[C@@H](CC(=O)O)C(=O)N[C@H](C(=O)N[C@@H](CC(N)=O)C(=O)N[C@]1(C)CCCCCCC=CCCC[C@@](C)(C(=O)N[C@@H](C)C(=O)N[C@@H](C)C(=O)N[C@@H](C)C(=O)N[C@@H](C)C(=O)N[C@@H](C)C(N)=O)NC(=O)[C@H](C)NC(=O)[C@H](CC(C)C)NC(=O)[C@H](Cc2ccccc2)NC(=O)[C@H](CC(C)C)NC(=O)[C@H](CC(C)C)NC(=O)[C@H]([C@@H](C)O)NC1=O)C(C)C [SP-25] (Ac-[Nle]DVN[R8]TLLFLA[S5]AAAAA-NH2; staple 5-12)
CC50: > 50 µM

compound: CCCC[C@H](NC(C)=O)C(=O)N[C@@H](CC(=O)O)C(=O)N[C@H](C(=O)N[C@@H](CC(N)=O)C(=O)N[C@@]1(C)CCCC=CCCC[C@@](C)(C(=O)N[C@@H](CC(C)C)C(=O)N[C@@H](C)C(=O)N[C@H](C(=O)N[C@@H](CCC(N)=O)C(=O)NC(C)(C)C(=O)N[C@@H](C)C(=O)N[C@@H](C)C(=O)N[C@@H](C)C(N)=O)C(C)C)NC(=O)[C@H](CC(C)C)NC(=O)[C@H](CC(C)C)NC(=O)[C@H]([C@@H](C)O)NC1=O)C(C)C [SP-21] (Ac-[Nle]DVN[S5]TLL[S5]LAVQ[Aib]AAA-NH2; staple 5-9)
CC50: > 50 µM

compound: CCCC[C@H](NC(C)=O)C(=O)N[C@@H](CC(=O)O)C(=O)N[C@H](C(=O)N[C@@H](CC(N)=O)C(=O)N[C@]1(C)CCCCCCC=CCCC[C@@](C)(C(=O)N[C@@H](C)C(=O)N[C@@H](C)C(=O)N[C@@H](CCC(N)=O)C(N)=O)NC(=O)[C@H](C)NC(=O)[C@H](CC(C)C)NC(=O)[C@H](Cc2ccccc2)NC(=O)[C@H](CC(C)C)NC(=O)[C@H](CC(C)C)NC(=O)[C@H]([C@@H](C)O)NC1=O)C(C)C [SP-18] (Ac-[Nle]DVN[R8]TLLFLA[S5]AAQ-NH2; staple 5-12)
CC50: > 50 µM

Shift focus to the following entry.
// query CC50 value for entry CCCC[C@H](NC(C)=O)C(=O)N[C@@H](CC(=O)O)C(=O)N[C@H](C(=O)N[C@@H](CC(N)=O)C(=O)N[C@@]1(C)CCCC=CCCC[C@@](C)(C(=O)N[C@@H](CC(C)C)C(=O)N[C@@H](C)C(=O)N[C@H](C(=O)NC(C)(C)C(=O)N[C@@H](C)C(=O)N[C@@H](CCC(N)=O)C(N)=O)C(C)C)NC(=O)[C@H](CC(C)C)NC(=O)[C@H](CC(C)C)NC(=O)[C@H]([C@@H](C)O)NC1=O)C(C)C [SP-6] (Ac-[Nle]DVN[S5]TLL[S5]LAV[Aib]AQ-NH2; staple 5-9)
> 100 µM
